Values compiled from ChEMBL document CHEMBL3817824.

Target Or System: UniProt P17252
pIC50: −log10 of the molar value.
Endpoint Label: pIC50

Look up pIC50: CN1C(=O)COc2c1cnc1ccc(Sc3nnc4c(F)cc(-c5cnn(C)c5)cn34)cc21 [DALMELITINIB]
< 4.52

###

Target Or System: Tyrosine-protein kinase JAK3 (Homo sapiens, UniProt P52333)
Sequence (P52333 whole entry): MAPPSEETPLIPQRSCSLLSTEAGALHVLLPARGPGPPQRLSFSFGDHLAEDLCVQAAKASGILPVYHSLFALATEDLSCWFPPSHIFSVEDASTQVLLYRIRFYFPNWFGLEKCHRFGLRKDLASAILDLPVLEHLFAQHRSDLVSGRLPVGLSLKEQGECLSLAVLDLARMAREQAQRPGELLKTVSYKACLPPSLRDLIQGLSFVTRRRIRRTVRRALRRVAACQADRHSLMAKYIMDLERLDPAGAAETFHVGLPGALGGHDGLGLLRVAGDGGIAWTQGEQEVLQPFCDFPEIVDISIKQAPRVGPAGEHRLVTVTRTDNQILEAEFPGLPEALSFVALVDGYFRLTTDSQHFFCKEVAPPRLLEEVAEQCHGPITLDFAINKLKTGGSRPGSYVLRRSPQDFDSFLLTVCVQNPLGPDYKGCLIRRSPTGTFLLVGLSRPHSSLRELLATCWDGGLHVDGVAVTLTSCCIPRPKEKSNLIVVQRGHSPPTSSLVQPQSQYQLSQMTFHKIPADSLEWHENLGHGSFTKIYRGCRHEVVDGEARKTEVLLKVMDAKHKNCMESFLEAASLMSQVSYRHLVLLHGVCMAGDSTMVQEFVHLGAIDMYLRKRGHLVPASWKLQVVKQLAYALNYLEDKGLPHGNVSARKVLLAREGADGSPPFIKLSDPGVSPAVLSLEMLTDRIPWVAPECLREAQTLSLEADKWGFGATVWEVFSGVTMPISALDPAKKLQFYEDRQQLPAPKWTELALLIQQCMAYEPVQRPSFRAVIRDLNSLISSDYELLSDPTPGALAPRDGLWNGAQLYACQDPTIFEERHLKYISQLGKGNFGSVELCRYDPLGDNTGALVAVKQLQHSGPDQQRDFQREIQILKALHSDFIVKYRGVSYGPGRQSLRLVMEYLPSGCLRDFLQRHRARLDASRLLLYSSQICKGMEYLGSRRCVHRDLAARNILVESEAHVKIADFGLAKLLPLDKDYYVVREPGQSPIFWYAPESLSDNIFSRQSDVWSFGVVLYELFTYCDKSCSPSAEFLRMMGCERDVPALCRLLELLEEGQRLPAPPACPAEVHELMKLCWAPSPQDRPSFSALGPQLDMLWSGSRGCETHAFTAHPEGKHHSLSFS
Endpoint Label: IC50

Look up IC50: CN1C(=O)COc2c1cnc1ccc(Sc3nnc4c(F)cc(-c5cnn(C)c5)cn34)cc21
> 30 µM
